Reference source: ChEMBL document CHEMBL3879881

TEST TARGET: Inhibitor of nuclear factor kappa-B kinase subunit beta (Homo sapiens, UniProt O14920)
Sequence (O14920 whole entry): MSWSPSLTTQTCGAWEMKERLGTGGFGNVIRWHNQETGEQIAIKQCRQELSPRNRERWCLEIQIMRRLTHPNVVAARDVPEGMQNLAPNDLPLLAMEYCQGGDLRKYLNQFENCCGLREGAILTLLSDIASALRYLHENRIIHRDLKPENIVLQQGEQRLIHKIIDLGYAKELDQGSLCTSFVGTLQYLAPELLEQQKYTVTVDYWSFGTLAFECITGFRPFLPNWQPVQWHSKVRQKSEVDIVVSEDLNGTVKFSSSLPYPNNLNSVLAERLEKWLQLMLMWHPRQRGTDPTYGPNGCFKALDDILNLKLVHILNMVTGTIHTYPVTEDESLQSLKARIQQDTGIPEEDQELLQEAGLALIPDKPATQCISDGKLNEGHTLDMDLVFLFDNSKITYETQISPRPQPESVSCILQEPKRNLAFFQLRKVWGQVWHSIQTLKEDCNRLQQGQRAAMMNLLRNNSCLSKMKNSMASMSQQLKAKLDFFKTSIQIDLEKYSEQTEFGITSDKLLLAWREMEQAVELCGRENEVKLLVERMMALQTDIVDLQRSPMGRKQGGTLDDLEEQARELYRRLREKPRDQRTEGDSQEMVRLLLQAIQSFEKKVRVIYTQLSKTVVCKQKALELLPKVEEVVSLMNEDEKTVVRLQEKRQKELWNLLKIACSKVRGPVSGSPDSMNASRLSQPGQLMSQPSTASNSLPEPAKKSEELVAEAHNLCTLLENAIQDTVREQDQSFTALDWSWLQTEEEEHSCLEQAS
PROTOCOL TEXT: Inhibition of human recombinant C-terminal FLAG-epitope-tagged IKK2 expressed in baculovirus using biotinylated IkappaBalpha peptide as substrate assessed as decrease in [gamma-33P]-ATP incorporation in substrate after 30 mins by scintillation counting method
pIC50: −log10 of the molar value.
Recorded pIC50 for the following molecules
PARAMETER: pIC50

>  <MOLECULE>
CC1Cc2c(C(N)=O)nn(-c3ccc(F)cc3)c2-c2cc(NC(=O)c3ccncc3Cl)ccc21 (stereo unspecified)

>  <VALUE REPORTED>
≥ 6.00

$$$$
>  <MOLECULE>
NC(=O)c1nn(-c2ccc(S(N)(=O)=O)cc2)c2c1CCc1ccc(NC(=O)c3cccc(Cl)c3Cl)cc1-2

>  <VALUE REPORTED>
≥ 6.00

$$$$
>  <MOLECULE>
NC(=O)c1nn(-c2ccc(S(N)(=O)=O)cc2)c2c1CCc1ccc(NC(=O)c3ccccc3)cc1-2

>  <VALUE REPORTED>
5.00 to 6.00

$$$$
>  <MOLECULE>
CCC(=O)Nc1ccc2c(c1)-c1c(c(C(N)=O)nn1-c1ccc(S(N)(=O)=O)cc1)CC2

>  <VALUE REPORTED>
5.00 to 6.00

$$$$
>  <MOLECULE>
CC(C)CNc1ccc2c(c1)-c1c(c(C(N)=O)nn1-c1ccc(S(N)(=O)=O)cc1)CC2

>  <VALUE REPORTED>
4.00 to 5.00

$$$$
>  <MOLECULE>
NC(=O)c1nn(-c2ccc(S(N)(=O)=O)cc2)c2c1CCc1ccc(NS(=O)(=O)c3ccc(Br)cc3)cc1-2

>  <VALUE REPORTED>
5.00 to 6.00

$$$$
>  <MOLECULE>
CS(=O)(=O)c1ccc(-n2nc(C(N)=O)c3c2-c2cc(NC(=O)c4cnccc4Cl)ccc2CC3)cc1

>  <VALUE REPORTED>
5.00 to 6.00

$$$$
>  <MOLECULE>
C[C@@H]1CN(c2cc(C(=O)Nc3ccc4c(c3)-c3c(c(C(N)=O)nn3-c3ccc(F)cc3)CC4)c(Cl)cn2)CCN1C

>  <VALUE REPORTED>
≥ 6.00

$$$$
>  <MOLECULE>
N#Cc1ccc(Cl)c(C(=O)Nc2ccc3c(c2)-c2c(c(C(N)=O)nn2-c2ccc4c(c2)OCO4)CC3)n1

>  <VALUE REPORTED>
5.00 to 6.00

$$$$
>  <MOLECULE>
C[S+]([O-])c1ccc(Cl)c(C(=O)Nc2ccc3c(c2)-c2c(c(C(N)=O)nn2-c2ccc(S(C)(=O)=O)cc2)CC3)c1 (stereo unspecified)

>  <VALUE REPORTED>
≥ 6.00

$$$$
>  <MOLECULE>
NC(=O)c1nn(-c2ccc3c(c2)OCO3)c2c1CCc1ccc(NC(=O)c3cc(CCN4CCOCC4)ncc3Cl)cc1-2

>  <VALUE REPORTED>
≥ 6.00

$$$$

* * *

TEST TARGET: Inhibitor of nuclear factor kappa-B kinase subunit beta (Homo sapiens)
PROTOCOL TEXT: Inhibition of human recombinant C-terminal FLAG-epitope-tagged IKK2 expressed in baculovirus using biotinylated IkappaBalpha peptide as substrate assessed as decrease in [gamma-33P]-ATP incorporation in substrate after 30 mins by scintillation counting method
pIC50: −log10 of the molar value.

>  <COMPOUND>
CS(=O)(=O)c1ccc(-n2nc(C(N)=O)c3c2-c2cc(NC(=O)[C@@H](N)Cc4c[nH]cn4)ccc2CC3)cc1

>  <TEST TARGET>
Inhibitor of nuclear factor kappa-B kinase subunit beta (Homo sapiens)

>  <pIC50>
5.00 to 6.00

$$$$
>  <COMPOUND>
C[S+]([O-])c1ccc(-n2nc(C(N)=O)c3c2-c2cc(NC(=O)c4cccnc4Cl)ccc2CC3)cc1 (stereo unspecified)

>  <TEST TARGET>
Inhibitor of nuclear factor kappa-B kinase subunit beta (Homo sapiens)

>  <pIC50>
≥ 6.00

$$$$
>  <COMPOUND>
NC(=O)c1nn(-c2ccc(S(=O)(=O)N3CCOCC3)cc2)c2c1CCc1ccc(N)cc1-2

>  <TEST TARGET>
Inhibitor of nuclear factor kappa-B kinase subunit beta (Homo sapiens)

>  <pIC50>
5.00 to 6.00

$$$$
>  <COMPOUND>
Cc1cccc(C(=O)Nc2ccc3c(c2)-c2c(c(C(N)=O)nn2-c2ccc(S(C)(=O)=O)cc2)CC3)c1[N+](=O)[O-]

>  <TEST TARGET>
Inhibitor of nuclear factor kappa-B kinase subunit beta (Homo sapiens)

>  <pIC50>
5.00 to 6.00

$$$$
>  <COMPOUND>
NC(=O)c1nn(-c2ccc(F)cc2)c2c1CCc1ccc(NC(=O)c3nc(N4CCOCC4)ccc3Cl)cc1-2

>  <TEST TARGET>
Inhibitor of nuclear factor kappa-B kinase subunit beta (Homo sapiens)

>  <pIC50>
5.00 to 6.00

$$$$
>  <COMPOUND>
NC(=O)c1nn(-c2cccc(F)c2)c2c1CCc1ccc(NC(=O)c3cccc(Cl)c3F)cc1-2

>  <TEST TARGET>
Inhibitor of nuclear factor kappa-B kinase subunit beta (Homo sapiens)

>  <pIC50>
5.00 to 6.00

$$$$
